- MEASUREMENT_TARGET: FGFR3 (UniProt P22607)
- Sequence (P22607 whole entry, looked up): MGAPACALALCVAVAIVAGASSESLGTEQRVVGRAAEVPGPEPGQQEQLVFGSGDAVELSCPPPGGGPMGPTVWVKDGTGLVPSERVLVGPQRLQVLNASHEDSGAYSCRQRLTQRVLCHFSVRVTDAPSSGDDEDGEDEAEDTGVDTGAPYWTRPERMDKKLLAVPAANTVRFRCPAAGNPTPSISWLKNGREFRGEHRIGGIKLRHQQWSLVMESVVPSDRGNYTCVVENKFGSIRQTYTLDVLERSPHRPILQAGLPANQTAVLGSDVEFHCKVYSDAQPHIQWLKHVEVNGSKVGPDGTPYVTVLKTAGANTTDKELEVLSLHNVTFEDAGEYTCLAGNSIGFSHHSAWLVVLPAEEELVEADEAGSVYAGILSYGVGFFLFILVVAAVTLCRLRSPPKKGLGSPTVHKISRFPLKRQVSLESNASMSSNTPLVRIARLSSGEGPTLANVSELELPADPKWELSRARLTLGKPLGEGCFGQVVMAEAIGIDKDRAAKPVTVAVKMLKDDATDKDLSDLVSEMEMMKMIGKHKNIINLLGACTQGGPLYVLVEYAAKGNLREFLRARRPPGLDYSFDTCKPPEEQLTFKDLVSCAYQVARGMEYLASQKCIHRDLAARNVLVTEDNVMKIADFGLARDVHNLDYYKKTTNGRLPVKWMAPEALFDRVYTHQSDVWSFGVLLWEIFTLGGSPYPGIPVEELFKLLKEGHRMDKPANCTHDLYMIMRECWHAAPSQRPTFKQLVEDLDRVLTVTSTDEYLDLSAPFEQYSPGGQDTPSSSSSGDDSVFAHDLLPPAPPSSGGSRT
- PROTOCOL_SUMMARY: phosphorylation enrichment, bacterial display (enrichment ratio); higher = better substrate or ligand; peptides without Tyr show the background;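 note: 11-residue human phosphosite peptides and single-mutation variants displayed on the E. coli surface, counted by deep sequencing, each peptide's frequency after selection divided by its frequency in the unselected input library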;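 note: frequency after pTyr selection over input frequency; kinase dosed for 20-30% of maximal phosphorylation in three min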
MEASURED_PROPERTY: phosphorylation enrichment

Entry PVQAAYQKVEA [HBB_Y131_V135E] has what phosphorylation enrichment? 0.525

---

Reported phosphorylation enrichment values are given for each entry in this list.
- Tested on: c-Abl (mouse)
- PROTOCOL_SUMMARY: phosphorylation enrichment, bacterial display (enrichment ratio); higher = better substrate or ligand; peptides without Tyr show the background

As a guide, the following entries are already answered.
RGLQVYHKRNA [LRP2_Y2010_R2012K]	0.561
MFQVQYNSSVD [LRFN1_Y458_YF]	0.566
PDKRIYQFTAA [SKAP2_Y197]	0.47
EYGSGYPNDPK [RNASEH2A_Y210_D205E]	0.574
PFRSIYFSSPK [MPG_Y75_YF]	0.398

Entry AIGFEYSEINI [SIGLEC12_Y588_YF] has what phosphorylation enrichment? 0.689

Entry EDGCIYPGTIA [SMN1_Y109_A111G] has what phosphorylation enrichment? 0.868

Entry VKMLLYTEVTR [GDI1_Y93] has what phosphorylation enrichment? 0.83

Entry RNFVRYVQGLK [VWF_Y1400] has what phosphorylation enrichment? 0.548

Entry LSVEIHDRREY [ITGB7_Y753_Y753H] has what phosphorylation enrichment? 0.823

Entry CKLFQYFLDHL [ATRX_Y1849_YF] has what phosphorylation enrichment? 0.933

Entry AKLNIYKRKVE [VWA3B_Y918] has what phosphorylation enrichment? 0.91

Entry GIVKAYFVHAR [AIPL1_Y267_R270H_YF] has what phosphorylation enrichment? 0.602

Entry VEKGSYSALRA [ABCC2_Y845_L849R] has what phosphorylation enrichment? 0.438
